Source listed as patent US11220504B2.

- experimental_target: human TLR8 (Homo sapiens)
- Construct: expressed in transfected cells; host or cells: HEK293 cells, transient transfection with TLR8 plasmid and NFκB-luc plasmid
- experiment_notes: TLR8 cellular reporter assay (HEK293, NFκB-luc)
- Assay type: cell-based
- test_parameters: HEK293 cells transfected with CMV-TLR8 and NFκB-luc, 6 hours incubation; lowest effective concentration

molecule: COCCNc1nc(N)nc2ccn(Cc3ccncc3)c12 [Compound 118]
TLR8 LEC: >25 µM
//
molecule: Cc1cc(CNc2nc(N)nc3ccn(Cc4cccc(C(F)(F)F)n4)c23)no1 [Compound 143]
TLR8 LEC: >25 µM
//
molecule: Cc1cc(CNc2nc(N)nc3ccn(Cc4cc(C(F)(F)F)ccn4)c23)no1 [Compound 145]
TLR8 LEC: >25 µM
//
molecule: Nc1nc(NCC2CCCO2)c2c(ccn2Cc2ccccn2)n1 (centres unmarked) [Compound 139]
TLR8 LEC: >25 µM
//
molecule: CCCCNc1nc(N)nc2ccn(CCc3ccccc3)c12 [Compound 11]
TLR8 LEC: 3.5 µM

====

- experimental_target: human TLR7 (Homo sapiens, UniProt Q9NYK1)
- Construct: expressed in transfected cells; host or cells: HEK293 cells, transient transfection with CMV-TLR7 plasmid and NFκB-luc plasmid
- Sequence (Q9NYK1 27-1049): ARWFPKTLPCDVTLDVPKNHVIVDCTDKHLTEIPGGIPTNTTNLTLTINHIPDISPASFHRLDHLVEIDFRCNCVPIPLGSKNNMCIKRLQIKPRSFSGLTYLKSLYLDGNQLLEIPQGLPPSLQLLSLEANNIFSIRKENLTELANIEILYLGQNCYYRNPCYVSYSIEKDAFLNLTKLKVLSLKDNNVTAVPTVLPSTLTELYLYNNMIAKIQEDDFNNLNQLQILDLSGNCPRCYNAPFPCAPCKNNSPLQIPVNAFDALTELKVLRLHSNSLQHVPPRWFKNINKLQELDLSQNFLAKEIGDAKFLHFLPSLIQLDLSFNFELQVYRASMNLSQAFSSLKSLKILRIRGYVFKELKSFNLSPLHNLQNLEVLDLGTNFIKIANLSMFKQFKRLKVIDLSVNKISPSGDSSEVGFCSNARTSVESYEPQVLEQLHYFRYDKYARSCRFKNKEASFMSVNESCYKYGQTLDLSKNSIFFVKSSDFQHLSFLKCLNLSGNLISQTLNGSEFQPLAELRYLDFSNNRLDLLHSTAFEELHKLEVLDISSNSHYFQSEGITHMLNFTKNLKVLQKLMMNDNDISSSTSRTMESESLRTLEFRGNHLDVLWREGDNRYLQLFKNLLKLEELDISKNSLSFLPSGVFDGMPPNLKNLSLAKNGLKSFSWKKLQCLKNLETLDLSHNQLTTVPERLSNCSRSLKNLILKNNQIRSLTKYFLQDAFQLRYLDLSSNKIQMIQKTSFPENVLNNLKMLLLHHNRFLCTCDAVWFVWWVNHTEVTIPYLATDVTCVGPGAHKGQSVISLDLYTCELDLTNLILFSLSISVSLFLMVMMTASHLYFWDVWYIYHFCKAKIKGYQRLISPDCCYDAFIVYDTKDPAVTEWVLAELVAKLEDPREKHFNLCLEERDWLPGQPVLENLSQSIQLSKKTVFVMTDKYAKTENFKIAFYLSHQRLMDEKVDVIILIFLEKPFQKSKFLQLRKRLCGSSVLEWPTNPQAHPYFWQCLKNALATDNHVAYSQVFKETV
- experiment_notes: TLR7 cellular reporter assay (HEK293, NFκB-luc)
- Format: cell-based
- test_parameters: HEK293 cells transfected with CMV-TLR7 and NFκB-luc, 6 hours incubation; lowest effective concentration
Field 'label' (enum: Condition met / Condition not met). Set to Condition met when TLR7 LEC is strictly under 2 µM; else Condition not met.

compound: Nc1nc(NCC2CCCO2)c2c(ccn2Cc2ccccn2)n1 (stereo not drawn)
label_value: Condition met

compound: CCCCNc1nc(N)nc2ccn(Cc3ccccc3OC(F)(F)F)c12
label_value: Condition met

compound: COC[C@H](C)Nc1nc(N)nc2ccn(Cc3csc(C)n3)c12
label_value: Condition met

compound: CCCC[C@@H](CCO)Nc1nc(N)nc2ccn(Cc3ccccc3F)c12
label_value: Condition met

compound: CCCC(C)Nc1nc(N)nc2ccn(Cc3ccccc3)c12 (stereo not drawn)
label_value: Condition met

compound: COCc1nc(CNc2nc(N)nc3ccn(Cc4ccccn4)c23)no1
label_value: Condition not met

====

- experimental_target: human TLR8 (Homo sapiens, UniProt Q9NR97)
- Construct: expressed in transfected cells; host or cells: HEK293 cells, transient transfection with TLR8 plasmid and NFκB-luc plasmid
- Sequence (Q9NR97 27-1041): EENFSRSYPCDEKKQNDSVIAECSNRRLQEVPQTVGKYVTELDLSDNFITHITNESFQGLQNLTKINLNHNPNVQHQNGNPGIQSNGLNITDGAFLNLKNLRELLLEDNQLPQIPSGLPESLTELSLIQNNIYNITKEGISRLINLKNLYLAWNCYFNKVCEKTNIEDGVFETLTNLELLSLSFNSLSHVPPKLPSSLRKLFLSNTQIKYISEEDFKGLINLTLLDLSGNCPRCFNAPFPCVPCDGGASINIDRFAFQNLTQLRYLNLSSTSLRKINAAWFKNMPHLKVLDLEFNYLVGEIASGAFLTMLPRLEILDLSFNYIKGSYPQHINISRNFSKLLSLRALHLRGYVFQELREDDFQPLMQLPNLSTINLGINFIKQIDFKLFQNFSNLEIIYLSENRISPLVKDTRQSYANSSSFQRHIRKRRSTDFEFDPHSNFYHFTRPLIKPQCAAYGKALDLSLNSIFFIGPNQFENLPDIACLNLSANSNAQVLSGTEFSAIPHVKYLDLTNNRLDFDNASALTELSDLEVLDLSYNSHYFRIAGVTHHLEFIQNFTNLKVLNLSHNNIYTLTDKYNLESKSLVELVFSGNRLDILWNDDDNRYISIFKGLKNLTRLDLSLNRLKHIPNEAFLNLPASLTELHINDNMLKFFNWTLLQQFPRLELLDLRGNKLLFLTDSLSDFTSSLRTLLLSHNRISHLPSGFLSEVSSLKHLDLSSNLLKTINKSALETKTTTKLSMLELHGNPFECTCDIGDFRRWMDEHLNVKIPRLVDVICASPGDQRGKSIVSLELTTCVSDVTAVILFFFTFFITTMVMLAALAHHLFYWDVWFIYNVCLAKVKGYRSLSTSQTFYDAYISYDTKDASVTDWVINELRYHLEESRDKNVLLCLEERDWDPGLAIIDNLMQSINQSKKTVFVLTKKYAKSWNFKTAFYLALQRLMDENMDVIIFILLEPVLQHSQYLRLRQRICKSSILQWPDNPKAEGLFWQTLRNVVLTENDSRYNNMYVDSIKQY
- experiment_notes: TLR8 cellular reporter assay (HEK293, NFκB-luc)
- Assay type: cell-based
- test_parameters: HEK293 cells transfected with CMV-TLR8 and NFκB-luc, 6 hours incubation; lowest effective concentration
Reported TLR8 LEC values for the following molecules.

molecule: CCCCNc1nc(N)nc2ccn(Cc3ccccc3OCC)c12
TLR8 LEC: >25 µM
//
molecule: CCCC(C)Nc1nc(N)nc2ccn(Cc3c(OC)cccc3OC)c12 (stereo not drawn)
TLR8 LEC: 0.22 µM
//
molecule: COCCNc1nc(N)nc2ccn(Cc3cc(OC4CCOC4)c(OC)cn3)c12 (stereo not drawn)
TLR8 LEC: >25 µM
//
molecule: Nc1nc(NCc2ncco2)c2c(ccn2Cc2ccccn2)n1
TLR8 LEC: >25 µM
//
molecule: CCC[C@@H](CCO)Nc1nc(N)nc2ccn(Cc3ccncc3)c12
TLR8 LEC: >25 µM
//
molecule: Cc1cc(CNc2nc(N)nc3ccn(Cc4ccccc4)c23)no1
TLR8 LEC: >25 µM
//
molecule: COc1ccnc(Cn2ccc3nc(N)nc(NCc4cc(C)on4)c32)c1
TLR8 LEC: >25 µM
//
molecule: CCCC[C@@H](CCO)Nc1nc(N)nc2ccn(Cc3ccccc3OC)c12
TLR8 LEC: 0.5577 µM
//
molecule: CCCCNc1nc(N)nc2ccn(CC3CCCCC3)c12
TLR8 LEC: >25 µM

====

Reported TLR7 LEC values for the following compounds.
- experimental_target: human TLR7 (Homo sapiens, UniProt Q9NYK1)
- Construct: expressed in transfected cells; host or cells: HEK293 cells, transient transfection with CMV-TLR7 plasmid and NFκB-luc plasmid
- experiment_notes: TLR7 cellular reporter assay (HEK293, NFκB-luc)
- Assay type: cell-based
- test_parameters: HEK293 cells transfected with CMV-TLR7 and NFκB-luc, 6 hours incubation; lowest effective concentration

compound: Nc1nc(NCc2ccccn2)c2c(ccn2Cc2ccccc2)n1 [Compound 61]
sign_qualifier: =
TLR7 LEC [µM]: 1.01

compound: CCCCNc1nc(N)nc2c(C)cn(Cc3ccccc3)c12 [Compound 54]
sign_qualifier: =
TLR7 LEC [µM]: 1.68

compound: CCCCNc1nc(N)nc2ccn(Cc3ccccc3Oc3ccccc3)c12 [Compound 2]
sign_qualifier: =
TLR7 LEC [µM]: 0.50

compound: CCC[C@@H](CCO)Nc1nc(N)nc2ccn(Cc3ccccc3)c12 [Compound 21]
sign_qualifier: =
TLR7 LEC [µM]: 0.009

compound: COc1c(C)cnc(Cn2ccc3nc(N)nc(NCc4cc(C)on4)c32)c1C [Compound 169]
sign_qualifier: =
TLR7 LEC [µM]: 0.04

compound: COc1ccccc1Cn1ccc2nc(N)nc(NCc3ncc(C)s3)c21 [Compound 215]
sign_qualifier: <
TLR7 LEC [µM]: 0.01

compound: CCOc1ccccc1Cn1ccc2nc(N)nc(NCCOC)c21 [Compound 129]
sign_qualifier: =
TLR7 LEC [µM]: 0.670

compound: Cc1nc(CNc2nc(N)nc3ccn(Cc4ccccn4)c23)no1 [Compound 173]
sign_qualifier: =
TLR7 LEC [µM]: 0.53

compound: CCCC(C)Nc1nc(N)nc2ccn(Cc3c(OC)cccc3OC)c12 (stereo not drawn) [Compound 98]
sign_qualifier: <
TLR7 LEC [µM]: 0.01

compound: CCCCNc1nc(N)nc2ccn(CCCC)c12 [Compound 8]
sign_qualifier: =
TLR7 LEC [µM]: 0.49

compound: CCCCNc1nc(N)nc2ccn(CCc3ccccc3)c12 [Compound 11]
sign_qualifier: =
TLR7 LEC [µM]: 1.5

compound: Cc1cc(CNc2nc(N)nc3ccn(Cc4cscn4)c23)no1 [Compound 154]
sign_qualifier: =
TLR7 LEC [µM]: 0.08

compound: CCCCn1ccc2nc(N)nc(NCc3ccccc3)c21 [Compound 83]
sign_qualifier: =
TLR7 LEC [µM]: 1.57

compound: COCCn1ccc2nc(N)nc(N[C@H](C)c3ccccn3)c21 (single isomer, unassigned) [Compound 151]
sign_qualifier: =
TLR7 LEC [µM]: 12.8

compound: Nc1nc(NCCCO)c2c(ccn2Cc2ccccc2)n1 [Compound 36]
sign_qualifier: =
TLR7 LEC [µM]: 1.06

compound: COCCn1ccc2nc(N)nc(NCc3cc(C(C)C)on3)c21 [Compound 199]
sign_qualifier: =
TLR7 LEC [µM]: 0.60

compound: CCCCNc1nc(N)nc2ccn(Cc3cccs3)c12 [Compound 73]
sign_qualifier: =
TLR7 LEC [µM]: 0.28

compound: CCCCNc1nc(N)nc2ccn(Cc3cccc(CN4CCCC4)c3)c12 [Compound 116]
sign_qualifier: =
TLR7 LEC [µM]: 0.049

compound: Cc1cc(CNc2nc(N)nc3ccn(Cc4cn5ccccc5n4)c23)no1 [Compound 157]
sign_qualifier: =
TLR7 LEC [µM]: 0.03

compound: COCCNc1nc(N)nc2ccn(Cc3cccc(C)n3)c12 [Compound 113]
sign_qualifier: =
TLR7 LEC [µM]: 1.320

compound: CCCCNc1nc(N)nc2ccn(Cc3ncccn3)c12 [Compound 56]
sign_qualifier: =
TLR7 LEC [µM]: 0.99

compound: Cc1cc(CNc2nc(N)nc3ccn(Cc4cc5ccccc5cn4)c23)no1 [Compound 182]
sign_qualifier: =
TLR7 LEC [µM]: 0.05

compound: COCCn1ccc2nc(N)nc(NCc3ccc(C)cn3)c21 [Compound 202]
sign_qualifier: =
TLR7 LEC [µM]: 1.61

compound: CCCCNc1nc(N)nc2ccn(CC3CCCO3)c12 (stereo not drawn) [Compound 71]
sign_qualifier: =
TLR7 LEC [µM]: 0.32

compound: COCCNc1nc(N)nc2ccn(Cc3cccc(OC)c3)c12 [Compound 107]
sign_qualifier: =
TLR7 LEC [µM]: 2.030

compound: CC[C@H](C)[C@@H](CO)Nc1nc(N)nc2ccn(Cc3ccccc3)c12 [Compound 38]
sign_qualifier: =
TLR7 LEC [µM]: 0.54

compound: CCCCNc1nc(N)nc2ccn(Cc3ccccc3OC)c12 [Compound 69]
sign_qualifier: =
TLR7 LEC [µM]: 0.004

compound: Cc1ccc(Cn2ccc3nc(N)nc(NCc4cc(C)on4)c32)nc1 [Compound 175]
sign_qualifier: =
TLR7 LEC [µM]: 0.02

compound: CCNc1nc(N)nc2ccn(Cc3ccccc3)c12 [Compound 35]
sign_qualifier: =
TLR7 LEC [µM]: 1.49

compound: Cc1cc(CNc2nc(N)nc3ccn(Cc4ncccc4C)c23)no1 [Compound 185]
sign_qualifier: =
TLR7 LEC [µM]: 0.07

compound: CCCC[C@@H](CO)Nc1nc(N)nc2ccn(Cc3cccnn3)c12 [Compound 14]
sign_qualifier: =
TLR7 LEC [µM]: 0.52

compound: CCCCCNc1nc(N)nc2ccn(Cc3ccccc3)c12 [Compound 29]
sign_qualifier: =
TLR7 LEC [µM]: 0.15

compound: CCCCNc1nc(N)nc2ccn(Cc3ccccc3-c3ccccc3)c12 [Compound 7]
sign_qualifier: =
TLR7 LEC [µM]: 0.61

compound: COc1cccnc1Cn1ccc2nc(N)nc(NCc3ncc(C)o3)c21 [Compound 213]
sign_qualifier: <
TLR7 LEC [µM]: 0.01

compound: Cc1cc(CNc2nc(N)nc3ccn(Cc4ccncc4)c23)no1 [Compound 112]
sign_qualifier: =
TLR7 LEC [µM]: 0.741

compound: Cc1cc(CNc2nc(N)nc3ccn(Cc4cccc(CN5CCCC5)c4)c23)no1 [Compound 153]
sign_qualifier: =
TLR7 LEC [µM]: 0.05

compound: CCC[C@@H](CO)Nc1nc(N)nc2ccn(CC(C)C)c12 [Compound 27]
sign_qualifier: =
TLR7 LEC [µM]: 0.15

compound: COCCNc1nc(N)nc2ccn(Cc3ccccc3)c12 [Compound 34]
sign_qualifier: =
TLR7 LEC [µM]: 0.91

compound: COCCNc1nc(N)nc2ccn(Cc3cccc4c3OCC4)c12 [Compound 150]
sign_qualifier: =
TLR7 LEC [µM]: 0.25
